For each record, write down the corresponding protein stability index.
B1: TOR1AIP2 (parent)
chain: YTSSQKVSPIQIDGAGRTWQDSDT

- Variants of: B1
- ASSAY_SUMMARY: protein stability index of a GFP-peptide fusion (GPS, HEK-293T) (PSI 1-6); higher = more stable;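 also: lentivirally expressed fusions sorted by FACS into six bins by GFP to DsRed ratio, PSI derived from sequencing read proportions per bin multiplied by bin number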
- COND: c terminus: a fixed tail appended
Give bare numbers.

Would you mind giving protein stability index for every variant in the list below?
1. YTSSQKVSPIQIDGAGRTWQDSGT [D23G]
2. YTISQKVSPIQIDGAGRTWQDSDT [S3I]
3. YTSSQKVSPIQYDGAGRTWQDSDT [I12Y]
4. FTSSQKVSPIQIDGAGRTWQDSDT [Y1F]
5. YTSSQKVSPIQVDGAGRTWQDSDT [I12V]
6. YTSSQKVSPMQIDGAGRTWQDSDT [I10M]

1. 2.72
2. 3.13
3. 3.19
4. 3.02
5. 2.97
6. 3.44
